# target_under_test: IL-17A(FLAG-Tagged): IL-17RA(His-Tagged) (Homo sapiens, UniProt Q16552, K93Q)
# Sequence (Q16552 with tags, fused parts or gaps K93Q): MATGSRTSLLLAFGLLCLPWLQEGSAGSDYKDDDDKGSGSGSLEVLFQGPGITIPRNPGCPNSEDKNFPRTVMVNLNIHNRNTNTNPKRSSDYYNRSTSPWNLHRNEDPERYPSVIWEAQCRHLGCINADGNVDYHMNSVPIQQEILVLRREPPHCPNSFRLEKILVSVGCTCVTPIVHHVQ
# protocol_text: IL-17A(FLAG-Tagged): IL-17RA(His-Tagged) Binding Disruption Eu-HTRF Assay
# particulars: IL-17A/IL-17RA binding disruption, simple average if tested more than once
This listing pairs compounds with measured IC50.
Give the number; nM is assumed, so skip it.

Study these solved cases before continuing.
O=C(CCC(F)(F)F)N[C@@H](c1cnn2cc([C@@H](NC(=O)c3ncccc3OCC(F)(F)F)C3CCC(F)(F)CC3)nc2c1)C1CC1 [Example 419]
1300
O=C(CC(C(F)(F)F)C(F)(F)F)NC(c1cnn2cc([C@@H](NC(=O)c3ccccc3)C3CCC(F)(F)CC3)nc2c1)C1CC1 (single isomer, unassigned) [Example 16]
130
COCC(NC(=O)CC1CC(F)(F)C1)c1cnn2cc([C@H](COC(C)(C)C(F)(F)F)NC(=O)c3nonc3C3CC3)nc2c1 (single isomer, unassigned) [Example 538]
24
O=C(CCC(F)(F)F)N[C@@H](c1cnn2cc([C@@H](NC(=O)c3ccnc(OCC(F)(F)F)c3)C3CCC(F)(F)CC3)nc2c1)C1CC1 [Example 171]
48
CC(C)c1snnc1C(=O)N[C@H](c1cn2ncc([C@H](NC(=O)CCC(F)(F)F)C3CC3)cc2n1)C1CCC(F)(F)CC1 [Example 87]
33
COc1cc(C(=O)N[C@H](c2cn3ncc([C@H](NC(=O)CCC(F)(F)F)C4CC4)cc3n2)C2CCC(F)(F)CC2)ncn1 [Example 465]
920
[2H]C([2H])([2H])n1nccc1C(=O)N[C@H](c1cn2ncc([C@H](NC(=O)CC3CC(F)(F)C3)C3CC3)cc2n1)C1CCC(F)(F)CC1 [Example 489]
54
Cc1nonc1C(=O)N[C@H](c1cn2ncc([C@H](NC(=O)CC34CC(F)(C3)C4)C3CC3)cc2n1)C1CCC(F)(F)CC1 [Example 272]
86

Which IC50 is reported for this compound? Cc1nonc1C(=O)N[C@H](c1cn2ncc([C@H](NC(=O)C(F)C3CC3)C3CC3)cc2n1)C1CCC(F)(F)CC1 (single isomer, unassigned) [Example 331]
310

How about this compound: [2H]C([2H])([2H])n1nccc1C(=O)N[C@H](c1cn2ncc([C@H](NC(=O)C[C@@H](C)C(F)(F)F)C3CCC3)cc2n1)C1CCC(F)(F)CC1 (relative stereo) [Example 502]
160

How about this compound: CC(C)n1nccc1C(=O)N[C@H](c1cn2ncc(C(CO)NC(=O)CC3CC(F)(F)C3)cc2n1)C1CCC(F)(F)CC1 (single isomer, unassigned) [Example 532]
1500

How about this compound: CCc1noc(C)c1C(=O)N[C@H](c1cn2ncc([C@H](NC(=O)CCC(F)(F)F)C3CC3)cc2n1)C1CCC(F)(F)CC1 [Example 82]
3000

How about this compound: O=C(CC1CC(F)(F)C1)NC(c1cnn2cc([C@@H](NC(=O)c3cnn(CCC(F)(F)F)n3)C3CCC(F)(F)CC3)nc2c1)C1CC1 (single isomer, unassigned) [Example 22]
140

How about this compound: CC(C)n1nccc1C(=O)N[C@H](c1cn2ncc([C@H](NC(=O)CCC3CC3(F)F)C3CC3)cc2n1)C1CCC(F)(F)CC1 (single isomer, unassigned) [Example 271]
140

How about this compound: O=C(CC1CC(F)(F)C1)N[C@@H](c1cnn2cc([C@@H](NC(=O)c3nonc3C(O)C3CC3)C3CCC(F)(F)CC3)nc2c1)C1CC1 (single isomer, unassigned) [Example 402]
110
